tested on: ASPC-1 tumor-bearing mice; experiment: Biodistribution of radionuclide labeled complexes in ASPC-1 tumor-bearing mice; assay type: in vivo, BALB/c nude mice; details: Liver, 4 h
endpoint: % ID/g (4 h) Liver (% ID/g)

Below, 6 compounds whose answers are already recorded.
COc1cccc(OC)c1-c1cc(C(=O)NC2(C(=O)O)C3CC4CC(C3)CC2C4)nn1-c1ccc(OCCCN(C)CCCN(C)C(=O)CN2CCN(CC(=O)[O-])CCN(CC(=O)[O-])CCN(CC(=O)[O-])CC2)cc1C(C)C.[177Lu+3] (stereo not drawn) [^177Lu-I-7] : 1.88
COc1cccc(OC)c1-c1cc(C(=O)NC2(C(=O)O)C3CC4CC(C3)CC2C4)nn1-c1ccc(NCCCN(C)CCCNC(=O)CN2CCN(CC(=O)[O-])CCN(CC(=O)[O-])CCN(CC(=O)[O-])CC2)cc1C(C)C.[177Lu+3] (stereo not drawn) [^177Lu-I-2] : 5.15
COc1cccc(OC)c1-c1cc(C(=O)NC2(C(=O)O)C3CC4CC(C3)CC2C4)nn1-c1ccc(C(=O)N(C)CCCN(C)CCCN(C)C(=O)CN2CCN(CC(=O)[O-])CCN(CC(=O)[O-])CCN(CC(=O)[O-])CC2)cc1C(C)C.[177Lu+3] (stereo not drawn) [^177Lu-C-2, reference compound] : 2.51
COc1cccc(OC)c1-c1cc(C(=O)NC2(C(=O)O)C3CC4CC(C3)CC2C4)nn1-c1ccc(C(=O)N(CCCNC(=O)CN2CCN(CC(=O)[O-])CCN(CC(=O)[O-])CCN(CC(=O)[O-])CC2)CCCN(C)C)cc1C(C)C.[177Lu+3] (stereo not drawn) [^177Lu-C-5, reference compound] : 0.79
COc1cccc(OC)c1-c1cc(C(=O)NC2(C(=O)O)C3CC4CC(C3)CC2C4)nn1-c1ccc(NCCOCCOCCNC(=O)CN2CCN(CC(=O)[O-])CCN(CC(=O)[O-])CCN(CC(=O)[O-])CC2)cc1C(C)C.[177Lu+3] (stereo not drawn) [^177Lu-I-10] : 0.96
COc1cccc(OC)c1-c1cc(C(=O)NC2(C(=O)O)C3CC4CC(C3)CC2C4)nn1-c1ccc(SCCCN(C)CCCN(C)C(=O)CN2CCN(CC(=O)[O-])CCN(CC(=O)[O-])CCN(CC(=O)[O-])CC2)cc1C(C)C.[177Lu+3] (stereo not drawn) [^177Lu-I-8] : 7.4

1: COc1cccc(OC)c1-c1cc(C(=O)NC2(C(=O)O)C3CC4CC(C3)CC2C4)nn1-c1ccc(NC(=O)CCCN(C)CCCN(C)C(=O)CN2CCN(CC(=O)[O-])CCN(CC(=O)[O-])CCN(CC(=O)[O-])CC2)cc1C(C)C.[177Lu+3] (stereo not drawn) [^177Lu-I-5]
2: COc1cccc(OC)c1-c1cc(C(=O)NC2(C(=O)O)C3CC4CC(C3)CC2C4)nn1-c1ccc(N(C)CCCN(C)CCCN(C)C(=O)CN2CCN(CC(=O)[O-])CCN(CC(=O)[O-])CCN(CC(=O)[O-])CC2)cc1C(C)C.[177Lu+3] (stereo not drawn) [^177Lu-I-1]
3: COc1cccc(OC)c1-c1cc(C(=O)NC2(C(=O)O)C3CC4CC(C3)CC2C4)nn1-c1ccc(N(CCCN(C)C)C(=O)COCCOCCNC(=O)CN2CCN(CC(=O)[O-])CCN(CC(=O)[O-])CCN(CC(=O)[O-])CC2)cc1C(C)C.[177Lu+3] (stereo not drawn) [^177Lu-I-6]
Sort the 3 compounds by % ID/g (4 h) Liver; largest first, smallest last. Give the order by naming the labels one after another as requested.
1, 2, 3
